# assayed.target: Acetylcholinesterase (Homo sapiens)
# test.description: Acetylcholinesterase (AChE) small molecule antagonists: enzyme-based qHTS assay (AID 1347397); further: nearly all actives have a fitted effect of over 55% in size
# condition.context: AChE enzyme activity inhibition; series mostly up to 115 µM
Calls of active or inactive are those of the source. The call rests on the fitted dose curve.
value.type: outcome

• CN1C[C@@H](NS(=O)(=O)N(C)C)C[C@@H]2c3cccc4c3c(cn4C)C[C@H]21 = inactive
• CC1COC2(c3ccccc3Cl)c3cc(Cl)ccc3NC(=O)CN12 (centres undefined) = inactive
• CN(C)CCc1ccc(O)cc1 = inactive
• CCC(=O)C(CCN(C)C)(c1ccccc1)c1ccccc1 = inactive

---

# test.description: qHTS assay to identify small molecule antagonists of the peroxisome proliferator-activated receptor delta (PPARd) signaling pathway - cell viability counter screen (AID 743213); further: nearly all actives have a fitted effect of over 50% in size
# condition.context: PPARd-bla HEK293H viability, CellTiter-Glo luminescence, 17 h; series mostly up to 62 µM
Inconclusive results are not listed. Calls of active or inactive are those of the source. Calls follow the shape of the dose curve; as a rule, active = well fitted cell-killing curve with a large enough effect in the repeat runs; inconclusive = weak or mixed curves; inactive = no such curve, though single readings can be large or run the other way.
value.type: outcome

Examples from the recorded data:
- CCC#N: inactive
- C#C[C@]1(O)C=C[C@H]2[C@@H]3CCC4=CC(=O)CC[C@@H]4[C@H]3CC[C@@]21CC: inactive
- BrCCCCCCBr: inactive
- CCOC(=O)CP(=O)(OCC)OCC: inactive
- COP(N)(=S)Oc1ccccc1C(=O)OC(C)C (stereo not drawn): inactive
- CC1(C)COP(Oc2ccccc2)OC1: inactive
- CCC1(c2ccccc2)C(=O)NC(=O)NC1=O: inactive
- CC(=O)C(Cl)Cl: inactive

Now for a further compound.
### Prompt Supply reported outcome belonging to this compound: CC(CCc1ccccc1)NC(C)C(O)c1ccc(O)cc1 (stereo not drawn)
### Response inactive

---

# test.description: A CellTox Green Cytotoxicity Assay to monitor cytotoxicity in HepG2 cells - 0 hour (AID 1224882); further: nearly all actives have a fitted effect of over 35% in size
# condition.context: CellTox Green fluorescence; series mostly up to 76.8 µM
Calls of active or inactive are those of the source. Calls follow the shape of the dose curve; as a rule, active = well fitted activation curve with a large enough effect in the repeat runs; inconclusive = weak or mixed curves; inactive = flat fitted curve, though single readings scatter.
value.type: outcome

• C=C(C)[C@@H]1CC=C(C=O)CC1 = inactive
• CSc1ccc(C(=O)C(C)(C)N2CCOCC2)cc1 = inactive
• Cc1nnc2n1-c1sc(CCC(=O)N3CCOCC3)cc1C(c1ccccc1Cl)=NC2 = inactive
• CCC#N = inactive
• CCC/C(=N\OCC)C1=C(O)CC(CC(C)SCC)CC1=O (stereo not given) = inactive
• C[C@]1(O)CC[C@H]2[C@@H]3CCC4=CC(=O)CC[C@]4(C)[C@@]3(F)[C@@H](O)C[C@@]21C = inactive

### Prompt Supply reported outcome belonging to this molecule: CCCSP(=O)(OCC)Oc1ccc(Br)cc1Cl (stereo not given)
### Response inactive

### Prompt Supply reported outcome belonging to this molecule: CCN(CC)c1nc(C)cc(OP(=S)(OC)OC)n1
### Response inactive

### Prompt Supply reported outcome belonging to this molecule: CCOc1nc(C(Cl)(Cl)Cl)ns1
### Response inactive

### Prompt Supply reported outcome belonging to this molecule: CN1C(=S)CN=C(c2ccccc2)c2cc(Cl)ccc21
### Response inactive

### Prompt Supply reported outcome belonging to this molecule: CC(COc1ccc(Oc2ccccc2)cc1)Oc1ccccn1 (stereo not given)
### Response inactive

### Prompt Supply reported outcome belonging to this molecule: CC(=O)CCc1ccc2c(c1)OCO2
### Response inactive

### Prompt Supply reported outcome belonging to this molecule: CC(C)COP(=O)(OCC(C)C)OCC(C)C
### Response inactive

### Prompt Supply reported outcome belonging to this molecule: O=[N+]([O-])c1ccc2c3c(cccc13)CC2
### Response inactive

### Prompt Supply reported outcome belonging to this molecule: CCN(Cc1ccc(Cl)nc1)/C(=C/[N+](=O)[O-])NC
### Response inactive

src = PubChem BioAssay (Tox21)
